Measured Inhibition, listed per entry.
- Test system: HepG2
- assay-method-text: GSK_TCMDC: Percent inhibition of human HepG2 cell line. Test compounds present at 10uM.
- Format: functional
Answer format: numeric, % implied, no suffix.

Field: example entries. Status: answers known.
CCOC(=O)c1ccc(NC(=O)Nc2ccc(-c3cccc(-c4nc5cccc(C)c5[nH]4)c3)cc2)cc1 : 91
CCCCc1cc(NCC)nc(Nc2cccc(OC)c2)n1 : 9
CO/C(=C\C=C\c1cc2cc(Cl)c(Cl)cc2[nH]1)C(=O)NCCCN1CCN(c2cccc(CCO)c2)CC1 : 61

Q: I would be grateful if you could share the reported Inhibition for COc1ccccc1C1CCN(C2CCC(NC(=O)/C=C/c3cc(C(F)(F)F)ccc3F)CC2)CC1 (stereo not given) .
A: 39

Q: Suppose we examine the compound "CCC(C)(C)c1ccc(N2C(N)=NC(N)=NC2(C)C)cc1.Cl" ; what Inhibition value has been reported?
A: 40

---

Inhibition values for the compounds below.
- Test system: HepG2
- assay-method-text: GSK_TCMDC: Percent inhibition of human HepG2 cell line. Test compounds present at 10uM.
- Type: functional

Field: example entries. Status: answers known.
CC1(C)NC(N)=NC(=N)N1OCc1ccc2ccccc2c1CON1C(=N)N=C(N)NC1(C)C : 8%
CCCOC(=O)C1=C(C)NC2=C(C(=O)CC(c3ccc(OC)c(OC)c3)C2)C1c1cccc(O)c1 (stereo not drawn) : 0%
COc1ccccc1CNC(=O)c1ccc(N2CCN(c3ccncc3)CC2)cn1.O=C(O)C(F)(F)F : 16%
CCN(CC)CCN(Cc1ccc(-c2ccc(C(F)(F)F)cc2)cc1)C(=O)Cn1c(CCc2cccc(F)c2F)nc(=O)c2ccc(F)cc21.O=C(O)C(O)C(O)C(=O)O : 14%
O=C(Nc1cccc(F)c1)N(Cc1ccc(-c2cccc(CN3CCNCC3)c2)cc1)C1CCN(Cc2ccccc2)CC1.O=C(O)C(F)(F)F : 13%
Cl.Oc1ccc(Cc2ccccc2)cc1CNC1CCCCC1 : 30%
CCC(CC)(Cc1ccccc1)NC(=O)[C@H](CC1CCCCC1)Nc1ccc(C#N)c2ccccc12.O=C(O)C(F)(F)F : 4%
COc1cc2c(cc1N(C(C)C)S(=O)(=O)c1sc3ccc(Cl)cc3c1C)CCNCC2.Cl : 98%

Q: Suppose we examine the compound "CS(=O)(=O)NCCCNCc1cccc(-c2ccc(-c3nc4ccccc4[nH]3)s2)c1.O=C(O)C(F)(F)F" ; what Inhibition value has been reported?
A: 24%

Q: Dear colleague, I am looking for the recorded Inhibition of the following compound: "O=C(N/C(=C/c1cccc([N+](=O)[O-])c1)c1nc2ccccc2[nH]1)c1cccc(Br)c1"
A: 0%

Q: Need Inhibition of "NC(=O)c1ccc(C(=O)Nc2cccc(-c3cccc(-c4nc5cc(C(F)(F)F)ccc5[nH]4)c3)c2)cc1" , thanks.
A: 63%

Q: I have this compound here, CC(O)C1CCCCN1C(=O)c1ccc(-c2cccc(-c3nc4cc(F)ccc4[nH]3)c2)cc1 (stereo not drawn) , and I need its recorded Inhibition.
A: 30%

Q: Fill blank: measured Inhibition of the compound "CN(C)CCNCc1ccc(-c2ccc(-c3nc4cc(F)ccc4[nH]3)cc2)cc1.O=C(O)C(F)(F)F" is ____.
A: 8%

Q: May I ask what Inhibition has been recorded for Cc1ccccc1C1CCN(C2CCC(NC(=O)c3cc4cc(C(C)C)ccc4[nH]3)CC2)CC1 (stereo not drawn) ?
A: 100%

Q: Given the entry "Cc1[nH]c2ccccc2c1C(=O)CSc1nn(-c2ccccc2)c(=S)s1" , report its measured Inhibition.
A: 0%

Q: I have this compound here, COc1ccc(NC(=O)C2c3ccccc3C(=O)N(C3CCCC3)C2c2cccs2)cc1OC (stereo not drawn) , and I need its recorded Inhibition.
A: 0%

Q: # query: Inhibition of entry COc1ccc(Cc2cccc(C(C(=O)NCc3cc(Cl)cc(Cl)c3)N3CCN(C)CC3)c2)cc1.O=C(O)C(F)(F)F (stereo not drawn)
A: 8%

Provenance of the data: ChEMBL document CHEMBL1157539
